Target: SARS-COV-2 RBD-SD1 (SARS-COV-2, UniProt P0DTC2 319-591)
Assay: periplasmic extract ELISA
Measure: binding result

{"Binder": "VHH4.2XAS31 (VHH) VHH: QVQLQESGGGFVQAGGSLRLSCATSGHRFSDYAVAWFRQTPGKEREFLAAITFNSDATYYADSVKGRFTISRDNAKNTAYLQMNSLKPDDTAVYSCAAGGNHYNPQYYHDYDKYDHWGQGTQVTVSS", "Value": "binds"}
{"Binder": "VHH4.2XAS58 (VHH) VHH: QVQLQESGGGLVQSGGSLRLSCAGSGFPLEAFSIGWFRQAPGKEREFLAAITFNSDATYYADSVKGRFTISRDNAKNTAYLQMNSLKPDDTAVYSCAAGGNHYNPQYYHDYDKYDHWGQGTQVTVFS", "Value": "binds"}
{"Binder": "VHH4.2XAS43 (VHH) VHH: QVQLQESGGGLVQAGDSLTLSCAASGRTGSNYAMGWFRQAPGKEREFLAAITFNSDATYYADSVKGRFTISRDNAKNTAYLQMNSLKPDDTAVYSCAAGGNHYNPQYYHDYDKYDHWGQGTQVTVSS", "Value": "binds"}
{"Binder": "VHH4.1XAS51 (VHH) VHH: QVQLQESGGGLVQAGGSLRLSCTASTPTIKNYAMGWFRQAPGKEREFLAAITFNSDATYYADSVKGRFTISRDNAKNTAYLQMNSLKPDDTAVYSCAAGGNHYNPQYYHDYDKYDYWGQGTQVTVSS", "Value": "binds"}
